The reader will find reported Purity % values listed item by item below.
assay type: physicochemical; details: 25° C., 60% RH, nitrogen protection, 6 months
Where a SMILES comes first, the peptide text is derived from it. [ ]: non-standard residue; d: D form. The star is where a group is joined. Gly(N-(2R-Ph-propyl)) = C[C@@H](CNCC(=O)O)c1ccccc1; Piperidin1yl(4-NH2,4-COOH) = NC1(C(=O)O)CCN(*)CC1
State just the number; it will be interpreted in %.

Prompt: Find the recorded Purity % belonging to CC(C)C[C@@H](NC(=O)[C@@H](Cc1ccccc1)NC(=O)CNC[C@H](C)c1ccccc1)C(=O)N[C@H](CCCCN)C(=O)N1CCC(N)(C(=O)O)CC1 [Embodiment 11] (H-[Gly(N-(2R-Ph-propyl))][dF][dL][dK]-{Piperidin1yl(4-NH2,4-COOH)}) and report it.
Completion: 99.51

Further cases:
Prompt: Find the recorded Purity % belonging to CC(C)C[C@@H](NC(=O)[C@@H](Cc1ccccc1)NC(=O)CNC[C@H](C)c1ccccc1)C(=O)N[C@H](CCCCN)C(=O)N1CCC(N)(C(=O)O)CC1 [Embodiment 9] (H-[Gly(N-(2R-Ph-propyl))][dF][dL][dK]-{Piperidin1yl(4-NH2,4-COOH)}) and report it.
Completion: 98.54

Prompt: Find the recorded Purity % belonging to CC(C)C[C@@H](NC(=O)[C@@H](Cc1ccccc1)NC(=O)CNC[C@H](C)c1ccccc1)C(=O)N[C@H](CCCCN)C(=O)N1CCC(N)(C(=O)O)CC1 [Embodiment 15] (H-[Gly(N-(2R-Ph-propyl))][dF][dL][dK]-{Piperidin1yl(4-NH2,4-COOH)}) and report it.
Completion: 99.63

Prompt: Find the recorded Purity % belonging to CC(C)C[C@@H](NC(=O)[C@@H](Cc1ccccc1)NC(=O)CNC[C@H](C)c1ccccc1)C(=O)N[C@H](CCCCN)C(=O)N1CCC(N)(C(=O)O)CC1 [Embodiment 3] (H-[Gly(N-(2R-Ph-propyl))][dF][dL][dK]-{Piperidin1yl(4-NH2,4-COOH)}) and report it.
Completion: 99.54

====

The reader will find reported Purity % values listed item by item below.
type: physicochemical; settings: 25° C., 20 days
Where a SMILES comes first, the peptide text is derived from it. [ ]: non-standard residue; d: D form. The star is where a group is joined. Gly(N-(2R-Ph-propyl)) = C[C@@H](CNCC(=O)O)c1ccccc1; Piperidin1yl(4-NH2,4-COOH) = NC1(C(=O)O)CCN(*)CC1
State just the number; it will be interpreted in %.

Example results:
Prompt: Find the recorded Purity % belonging to CC(C)C[C@@H](NC(=O)[C@@H](Cc1ccccc1)NC(=O)CNC[C@H](C)c1ccccc1)C(=O)N[C@H](CCCCN)C(=O)N1CCC(N)(C(=O)O)CC1 [Embodiment 2] (H-[Gly(N-(2R-Ph-propyl))][dF][dL][dK]-{Piperidin1yl(4-NH2,4-COOH)}) and report it.
Completion: 97.63

Prompt: Find the recorded Purity % belonging to CC(C)C[C@@H](NC(=O)[C@@H](Cc1ccccc1)NC(=O)CNC[C@H](C)c1ccccc1)C(=O)N[C@H](CCCCN)C(=O)N1CCC(N)(C(=O)O)CC1 [Embodiment 6] (H-[Gly(N-(2R-Ph-propyl))][dF][dL][dK]-{Piperidin1yl(4-NH2,4-COOH)}) and report it.
Completion: 99.30

Prompt: Find the recorded Purity % belonging to CC(C)C[C@@H](NC(=O)[C@@H](Cc1ccccc1)NC(=O)CNC[C@H](C)c1ccccc1)C(=O)N[C@H](CCCCN)C(=O)N1CCC(N)(C(=O)O)CC1 [Embodiment 4] (H-[Gly(N-(2R-Ph-propyl))][dF][dL][dK]-{Piperidin1yl(4-NH2,4-COOH)}) and report it.
Completion: 97.28

Further cases:
Prompt: Find the recorded Purity % belonging to CC(C)C[C@@H](NC(=O)[C@@H](Cc1ccccc1)NC(=O)CNC[C@H](C)c1ccccc1)C(=O)N[C@H](CCCCN)C(=O)N1CCC(N)(C(=O)O)CC1 [Embodiment 12] (H-[Gly(N-(2R-Ph-propyl))][dF][dL][dK]-{Piperidin1yl(4-NH2,4-COOH)}) and report it.
Completion: 96.97

====

type: physicochemical; conditions: 4° C., 6 months
Where a SMILES comes first, the peptide text is derived from it. [ ]: non-standard residue; d: D form. The star is where a group is joined. Gly(N-(2R-Ph-propyl)) = C[C@@H](CNCC(=O)O)c1ccccc1; Piperidin1yl(4-NH2,4-COOH) = NC1(C(=O)O)CCN(*)CC1
quantity: Purity %
Form field: result (number plus unit)

Example results:
Prompt: Find the recorded Purity % belonging to CC(C)C[C@@H](NC(=O)[C@@H](Cc1ccccc1)NC(=O)CNC[C@H](C)c1ccccc1)C(=O)N[C@H](CCCCN)C(=O)N1CCC(N)(C(=O)O)CC1 [Embodiment 15] (H-[Gly(N-(2R-Ph-propyl))][dF][dL][dK]-{Piperidin1yl(4-NH2,4-COOH)}) and report it.
Completion: 99.66%

Prompt: Find the recorded Purity % belonging to CC(C)C[C@@H](NC(=O)[C@@H](Cc1ccccc1)NC(=O)CNC[C@H](C)c1ccccc1)C(=O)N[C@H](CCCCN)C(=O)N1CCC(N)(C(=O)O)CC1 [Embodiment 11] (H-[Gly(N-(2R-Ph-propyl))][dF][dL][dK]-{Piperidin1yl(4-NH2,4-COOH)}) and report it.
Completion: 99.57%

Prompt: Find the recorded Purity % belonging to CC(C)C[C@@H](NC(=O)[C@@H](Cc1ccccc1)NC(=O)CNC[C@H](C)c1ccccc1)C(=O)N[C@H](CCCCN)C(=O)N1CCC(N)(C(=O)O)CC1 [Embodiment 3] (H-[Gly(N-(2R-Ph-propyl))][dF][dL][dK]-{Piperidin1yl(4-NH2,4-COOH)}) and report it.
Completion: 99.60%

Further cases:
Prompt: Find the recorded Purity % belonging to CC(C)C[C@@H](NC(=O)[C@@H](Cc1ccccc1)NC(=O)CNC[C@H](C)c1ccccc1)C(=O)N[C@H](CCCCN)C(=O)N1CCC(N)(C(=O)O)CC1 [Embodiment 9] (H-[Gly(N-(2R-Ph-propyl))][dF][dL][dK]-{Piperidin1yl(4-NH2,4-COOH)}) and report it.
Completion: 98.57%
